Entries annotated with measured pIC50
- System: OVCAR-3 cells
- assay: Cell Growth Inhibition, OVCAR-3 (CellTiterGlo, 6 days)
- Type: cell-based
- settings: Homo sapiens, 144 h; OVCAR-3, 6-day treatment, CellTiterGlo 2.0
pIC50: −log10 of the molar value.

Solved cases below.
# compound, pIC50
data = [
    ("CS(=O)(=O)N1CCC(Nc2ncc3cccc(N4CCC5(C4)CC(F)(F)C5)c3n2)CC1", "< 5.70"),
    ("FC(F)c1cc(N2CC3(CCNC3)C2)c2nc(Nc3ccc4c(c3)CN(C3CC3)C4)ncc2c1", "< 5.70"),
    ("CS(=O)(=O)N1CCC(Nc2ncc3cc(C(F)F)cc(C4CC(O)(C(F)F)C4)c3n2)CC1 (centres unmarked)", "6.30 to 6.70"),
    ("CS(=O)(=O)N1CCC(Nc2ncc3cc(C(F)F)cc(N4CC5(CCNC5)C4)c3n2)CC1", "5.70 to 6.30"),
]

**Query** Item CS(=O)(=O)N1CCC(Nc2ncc3cccc(N4CC5(CNCC5(F)F)C4)c3n2)CC1 with OVCAR-3 cells - pIC50?
**Result** 5.70 to 6.30

----------
- target-entity: CDK6/Cyclin D3 (Homo sapiens (Human), UniProt Q00534)
- Sequence (Q00534 whole entry): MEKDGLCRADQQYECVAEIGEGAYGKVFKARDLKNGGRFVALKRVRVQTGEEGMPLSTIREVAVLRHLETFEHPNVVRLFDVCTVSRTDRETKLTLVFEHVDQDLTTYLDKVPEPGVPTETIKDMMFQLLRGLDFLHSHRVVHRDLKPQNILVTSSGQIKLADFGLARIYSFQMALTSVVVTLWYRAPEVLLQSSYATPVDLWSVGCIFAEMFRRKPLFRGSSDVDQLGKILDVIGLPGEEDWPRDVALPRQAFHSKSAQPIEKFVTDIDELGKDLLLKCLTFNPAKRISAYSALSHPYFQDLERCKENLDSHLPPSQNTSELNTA
- Sequence (P30281 whole entry partner): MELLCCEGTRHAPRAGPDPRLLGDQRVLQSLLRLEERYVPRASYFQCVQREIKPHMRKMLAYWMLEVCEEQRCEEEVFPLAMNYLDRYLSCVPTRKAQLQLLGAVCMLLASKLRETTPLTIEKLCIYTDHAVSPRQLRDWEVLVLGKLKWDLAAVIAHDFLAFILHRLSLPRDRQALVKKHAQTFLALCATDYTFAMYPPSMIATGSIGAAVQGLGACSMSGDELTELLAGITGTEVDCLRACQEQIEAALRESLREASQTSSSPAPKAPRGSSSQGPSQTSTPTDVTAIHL
- assay: CDK6/Cyclin D3 ADP-Glo Kinase Assay
- settings: 100 uM ATP, read-out: CDK6/ CyclinD3 IC50
Reported IC50 values for the following compounds.

// known answers, use as guide
# compound, IC50
records = [
    ("CN1CC2(CCN(c3cc(C(F)F)cc4cnc(Nc5ccc6c(c5)CN(S(C)(=O)=O)C6)nc34)C2)C1", "< 200 nM"),
    ("CN1CC2(CCN(c3cccc4cnc(NC5CCN(S(C)(=O)=O)CC5)nc34)C2)C1", "< 200 nM"),
    ("COCCN1CC2(CCN(c3cccc4cnc(Nc5ccc(N6CC7(COC7)C6)cn5)nc34)C2)C1", "500 to 2000 nM"),
    ("CS(=O)(=O)N1Cc2ccc(Nc3ncc4cc(C(F)F)cc(N5CC6(C5)CN(C5CC5)C6)c4n3)cc2C1", "< 200 nM"),
]

**Query** Using the record for CS(=O)(=O)N1CCC(Nc2ncc3cc(C(F)F)cc(N4CC5(CCNC5)C4)c3n2)CC1 , report its IC50.
**Result** < 200 nM

**Query** Need IC50, item CN1CC2(CC(n3cc(Nc4ncc5cc(C(F)F)cc(N6CCC(C#N)(C7CC7)C6)c5n4)cn3)C2)C1 (centres unmarked)
**Result** < 200 nM

----------
# pIC50 annotations
- target-entity: CDK1/Cyclin B1 (Homo sapiens (Human))
- assay: CDK1/Cyclin B1 ADP-Glo Kinase Assay
- settings: 80 uM ATP
pIC50: −log10 of the molar value.

# molecule, observed
measured = [
    ("COCCN1CC2(C1)CN(c1cccc3cnc(NC4CCN(S(C)(=O)=O)CC4)nc13)C2", "5.70 to 6.30"),
    ("O[C@@H]1COCC[C@H]1Nc1ncc2cc(C(F)F)cc(N3CC(F)(F)C4(CNC4)C3)c2n1 (racemic)", "< 5.70"),
    ("CS(=O)(=O)N1CCC(Nc2ncc3cc(C(F)F)cc(C4CC5(C4)CN(CC(F)(F)CO)C5)c3n2)CC1", "> 6.70"),
    ("CS(=O)(=O)N1CCC(Nc2ncc3cccc(C4CC(CO)(C(F)F)C4)c3n2)CC1 (stereo not shown)", "6.30 to 6.70"),
    ("CN1C[C@@H]2[C@H](C1)[C@H]2Nc1ncc2cc(C(F)F)cc(N3CCC4(C3)CS(=O)(=O)C4)c2n1", "< 5.70"),
    ("CC(=O)N1CCC2(CCN(c3cccc4cnc(Nc5ccc(N6CCN(C)CC6)cc5)nc34)C2)C1 (stereo not shown)", "< 5.70"),
    ("CN1Cc2ccc(Nc3ncc4cc(C(F)F)cc(N5CC6(C5)CN(S(C)(=O)=O)C6)c4n3)cc2C1", "5.70 to 6.30"),
    ("CS(=O)(=O)N1CCC(Nc2ncc3cccc(N4CCCC5(CCOC5)C4)c3n2)CC1 (stereo not shown)", "< 5.70"),
]

**Query** So what's the measured pIC50 for this one? CC1(C)CC2(CN(c3cccc4cnc(NC5CCN(S(C)(=O)=O)CC5)nc34)C2)C1
**Result** < 5.70

**Query** For the molecule CS(=O)(=O)N1CC[C@@H](Nc2ncc3cc(C(F)F)cc(N4CC(F)(F)C5(CNC5)C4)c3n2)[C@H](O)C1 (racemic) , what pIC50 is on record?
**Result** 5.70 to 6.30

**Query** Tell me the measured pIC50 of CS(=O)(=O)N1CCC(Nc2ncc3cccc(C4CCCC4)c3n2)CC1 , please.
**Result** > 6.70

**Query** Name the reported pIC50 value associated with the molecule O=S(=O)(c1ccc(C(F)(F)F)nc1)N1CCC(Nc2ncc3cc(C(F)F)cc(N4CC5(CCNC5)C4)c3n2)CC1
**Result** > 6.70

**Query** State the recorded pIC50 for this entry: CS(=O)(=O)N1CCC(Nc2ncc3cccc(N4CCC5(CCC5(F)F)C4)c3n2)CC1 (stereo not shown)
**Result** 5.70 to 6.30

**Query** I would be grateful if you could share the reported pIC50 for CC(=O)N1CCC2(CCN(c3cccc4cnc(Nc5ccc(N6CC7(C6)CC(F)(F)C7)cn5)nc34)C2)C1 (stereo not shown) .
**Result** < 5.70

**Query** What pIC50 value was documented for this molecule, CN1CC2(CCN(c3cc(C(F)F)cc4cnc(NC5CCN(c6ncc7ccn(C8CC8)c7n6)CC5)nc34)C2)C1 ?
**Result** < 5.70

**Query** I would be grateful if you could share the reported pIC50 for CC(=O)N1CCC2(CCN(c3cccc4cnc(Nc5ccc6c(c5)CCN(C)C6)nc34)C2)C1 (stereo not shown) .
**Result** < 5.70

**Query** Fill in: pIC50 of CS(=O)(=O)N1CCC(Nc2ncc3cccc(N4CCCC5(COC5)C4)c3n2)CC1 is ___
**Result** < 5.70

**Query** Which pIC50 value is on record for CS(=O)(=O)N1CCC(Nc2ncc3cccc(C4CC(O)(C(F)F)C4)c3n2)CC1 (stereo not shown) ?
**Result** > 6.70

**Query** # input molecule: COCCN1CC2(CCN(c3cccc4cnc(Nc5ccc(N6CC7(COC7)C6)cn5)nc34)C2)C1 ; wanted: its pIC50
**Result** < 5.70

----------
- target-entity: CDK2/Cyclin E1 full length (Homo sapiens (Human))
- assay: CDK2/Cyclin E1 Full Length ADP-Glo Kinase Assay
- Assay type: biochemical
- settings: 20 uM ATP, read-out: CDK2/ CyclinE1 IC50
pIC50: −log10 of the molar value.
quantity-kind: pIC50

Solved cases (4 shown):
# compound, observed
measured = [
    ("CN1CCc2cc(Nc3ncc4cc(C(F)F)cc(N5CC6(C5)CN(C5CC5)C6)c4n3)ccc2C1", "6.30 to 6.70"),
    ("CS(=O)(=O)N1CCC(Nc2ncc3cccc(N4CC5(CCOCC5)C4C4CC4)c3n2)CC1 (centres unmarked)", "> 6.70"),
    ("CS(=O)(=O)N1CCC(Nc2ncc3cccc(N4CCC5(CNC5)C4)c3n2)CC1", "> 6.70"),
    ("CS(=O)(=O)N1CCC(Nc2ncc3cc(C(F)F)cc(N4CC5(CNCC5(F)F)C4)c3n2)CC1", "> 6.70"),
]

**Query** Any idea what its pIC50 is? The compound is CS(=O)(=O)N1CCC(Nc2ncc3cc(C(F)F)cc(N4CC5(CCNC5)C4)c3n2)CC1
**Result** > 6.70

**Query** Please report the recorded pIC50 for CS(=O)(=O)N1CCC(Nc2ncc3cccc(C4CC5(CNCCO5)C4)c3n2)CC1 (centres unmarked) .
**Result** > 6.70

**Query** Which pIC50 reading was recorded for the compound COCCN1CC2(C1)CN(c1cc(C(F)F)cc3cnc(NC4CCN(S(=O)(=O)C5CC5)CC4)nc13)C2 ?
**Result** > 6.70

**Query** Entry under review: CN1CCN(C2CCN(c3cccc4cnc(NC5CCN(S(C)(=O)=O)CC5)nc34)C2)CC1 (centres unmarked) . Reported pIC50?
**Result** 6.30 to 6.70

----------
- target-entity: CDK1/Cyclin B1 (Homo sapiens (Human), UniProt P06493)
- Sequence (P06493 whole entry): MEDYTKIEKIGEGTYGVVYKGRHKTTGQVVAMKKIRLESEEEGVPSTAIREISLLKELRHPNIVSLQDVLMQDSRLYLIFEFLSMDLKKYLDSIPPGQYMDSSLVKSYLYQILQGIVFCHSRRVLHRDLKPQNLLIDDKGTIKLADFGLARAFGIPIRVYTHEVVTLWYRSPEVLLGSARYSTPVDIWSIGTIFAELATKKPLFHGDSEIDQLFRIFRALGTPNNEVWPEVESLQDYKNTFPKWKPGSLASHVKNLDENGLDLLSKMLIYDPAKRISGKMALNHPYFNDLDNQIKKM
- Sequence (P14635 whole entry partner): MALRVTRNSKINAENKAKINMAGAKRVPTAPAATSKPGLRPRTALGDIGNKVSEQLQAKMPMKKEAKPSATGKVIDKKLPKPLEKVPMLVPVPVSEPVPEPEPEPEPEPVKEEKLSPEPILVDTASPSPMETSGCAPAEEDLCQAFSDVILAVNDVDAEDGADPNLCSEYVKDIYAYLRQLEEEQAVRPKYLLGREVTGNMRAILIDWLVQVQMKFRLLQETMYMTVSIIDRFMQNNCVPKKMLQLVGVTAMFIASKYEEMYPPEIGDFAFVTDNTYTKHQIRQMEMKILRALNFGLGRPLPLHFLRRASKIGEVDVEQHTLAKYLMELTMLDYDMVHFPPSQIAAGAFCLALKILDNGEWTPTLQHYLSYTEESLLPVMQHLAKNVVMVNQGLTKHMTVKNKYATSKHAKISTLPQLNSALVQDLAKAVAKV
- assay: CDK1/Cyclin B1 ADP-Glo Kinase Assay
- settings: 80 uM ATP
pIC50: −log10 of the molar value.
quantity-kind: pIC50

Examples with answers:
# compound, pIC50
data = [
    ("CS(=O)(=O)N1CCC(Nc2ncc3cccc(N4CC5(CCNC5)C4)c3n2)CC1 [Example 31]", "6.30 to 6.70"),
    ("CC(=O)N1CCC2(CCN(c3cc(C(F)F)cc4cnc(Nc5ccc(N6CCN(C)CC6)cc5)nc34)C2)C1 (stereo not drawn) [Example 51]", "< 5.70"),
]

**Query** # get_value(readout='pIC50', item= CN1CC2(CCN(c3cc(C(F)F)cc4cnc(NC5CCN(S(=O)(=O)C6CC6)CC5)nc34)C2)C1 [Example 77] )
**Result** > 6.70

**Query** Fill in the blank: the reported pIC50 of CCN1CC2(C1)CN(c1ccc(Nc3ncc4cccc(N5CCC6(CCN(C(C)=O)C6)C5)c4n3)nc1)C2 (stereo not drawn) [Example 46] is ____.
**Result** < 5.70

**Query** Given the compound CS(=O)(=O)N1CCC(Nc2ncc3cccc(N4CCC5(CCOCC5)C4)c3n2)CC1 [Example 26] , what is its reported pIC50?
**Result** 5.70 to 6.30

**Query** Param item = COCCN1CC2(C1)CN(c1cc(C(F)F)cc3cnc(NC4CCN(S(=O)(=O)C5CC5)CC4)nc13)C2 [Example 76] ; retrieve measured pIC50.
**Result** 5.70 to 6.30
